# measurement_description: Food and proton pump inhibitor crossover PK study in healthy subjects
# Format: in vivo, human
# assay_context: human, in vivo, po, 30 mg, Fasted, 30 mg oral
# Method: In an open-label, randomized, 3-period crossover study, healthy subjects received 30 mg cerdulatinib orally. The 3-period treatments were fasted, high-fat diet, and proton pump inhibitor (PPI) esomaprazole, with 14-day washout between treatments. Blood samples were collected up to 72 hours after cerdulatinib treatment. PK endpoints were area under the curve (AUC), maximum concentration (Cmax), Time to Cmax (Tmax), and half-live (T1/2).
readout: Cmax (ng/mL)
Record the value in ng/mL, omitting the unit from your answer.

Tell me measured Cmax for "CCS(=O)(=O)N1CCN(c2ccc(Nc3ncc(C(N)=O)c(NC4CC4)n3)cc2)CC1" please. 168
